For H1 (histamine receptor type 1) (Homo sapiens, UniProt P35367), measured Ki is reported for the entries below.
MEASURE_NAME: Ki

                                   molecule  measure_name      val
0  CCCCCCCCCCCCNCCCc1ccc([N+](=O)[O-])cc1 [3b]            Ki  > 10 µM
1  CCCCCCCCCCCCNCCCc1ccccc1 [3a, N-(3-Phenylpropyl)dodecan-1-amine]            Ki  > 10 µM
2  CCCCCCCNCCCc1ccccc1 [2a, N-(3-Phenylpropyl)heptan-1-amine]            Ki  > 10 µM

###

Biological target: H2 (histamine receptor type 2) (Homo sapiens, UniProt P25021)
Sequence (P25021 whole entry): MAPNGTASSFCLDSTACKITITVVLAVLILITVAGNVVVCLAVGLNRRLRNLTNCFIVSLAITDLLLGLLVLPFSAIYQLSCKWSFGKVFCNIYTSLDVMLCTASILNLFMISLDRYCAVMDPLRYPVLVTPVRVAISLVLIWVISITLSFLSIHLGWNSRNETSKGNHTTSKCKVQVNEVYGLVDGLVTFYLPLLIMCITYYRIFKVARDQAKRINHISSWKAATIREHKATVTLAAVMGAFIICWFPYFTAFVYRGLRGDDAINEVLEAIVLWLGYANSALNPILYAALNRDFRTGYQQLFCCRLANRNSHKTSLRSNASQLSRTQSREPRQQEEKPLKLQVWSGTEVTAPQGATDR
pKi: −log10 of the molar value.
MEASURE_NAME: pKi

                                   molecule     val
0  CCCCCCCNCCCc1ccccc1 [2a, N-(3-Phenylpropyl)heptan-1-amine]  < 5.00
1  CCCCCCCCCCCCNCCCc1ccccc1 [3a, N-(3-Phenylpropyl)dodecan-1-amine]  < 5.00
2    CCCCCCCNCCCc1ccc([N+](=O)[O-])cc1 [2b]    6.22

###

Some compounds, each annotated with its measured pKi.
Biological target: M3 (muscarinic acetylcholine receptor type 3) (Homo sapiens)
Sequence (P20309 whole entry): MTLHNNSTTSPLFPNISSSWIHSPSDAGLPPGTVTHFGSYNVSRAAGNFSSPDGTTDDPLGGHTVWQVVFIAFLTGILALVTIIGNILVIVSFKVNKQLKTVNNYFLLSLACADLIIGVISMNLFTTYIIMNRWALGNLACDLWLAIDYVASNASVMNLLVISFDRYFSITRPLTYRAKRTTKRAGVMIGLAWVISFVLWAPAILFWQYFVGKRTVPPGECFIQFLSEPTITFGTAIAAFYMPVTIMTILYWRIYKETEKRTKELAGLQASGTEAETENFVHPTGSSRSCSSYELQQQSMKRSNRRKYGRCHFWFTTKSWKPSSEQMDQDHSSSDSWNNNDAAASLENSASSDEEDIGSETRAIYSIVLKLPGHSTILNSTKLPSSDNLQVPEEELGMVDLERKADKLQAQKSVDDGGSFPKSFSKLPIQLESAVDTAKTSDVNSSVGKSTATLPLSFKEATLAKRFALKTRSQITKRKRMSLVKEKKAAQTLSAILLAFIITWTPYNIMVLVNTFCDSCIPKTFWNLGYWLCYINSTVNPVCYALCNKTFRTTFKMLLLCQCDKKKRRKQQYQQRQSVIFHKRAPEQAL
pKi: −log10 of the molar value.
MEASURE_NAME: pKi

                       smiles_record     val
0           CCCCCCCCCCCCNCCCc1ccccc1  < 5.00
1                CCCCCCCNCCCc1ccccc1  < 5.00
2  CCCCCCCNCCCc1ccc([N+](=O)[O-])cc1    5.96

###

For Sig-1R, sigma-1 receptor (Rattus norvegicus), measured Ki is reported for the entries below.
MEASURE_NAME: Ki (nM)

In [3]: df
Out[3]:
                            smiles_record   val
0                CCCCCCCCCCCCNCCCc1ccccc1  1500
1                     CCCCCCCNCCCc1ccccc1    90
2  CCCCCCCCCCCCNCCCc1ccc([N+](=O)[O-])cc1   200
3       CCCCCCCNCCCc1ccc([N+](=O)[O-])cc1    20

###

Target: sigma-2 receptor (sigma-2 sites) (Rattus norvegicus)
Sequence (Q5U3Y7 whole entry): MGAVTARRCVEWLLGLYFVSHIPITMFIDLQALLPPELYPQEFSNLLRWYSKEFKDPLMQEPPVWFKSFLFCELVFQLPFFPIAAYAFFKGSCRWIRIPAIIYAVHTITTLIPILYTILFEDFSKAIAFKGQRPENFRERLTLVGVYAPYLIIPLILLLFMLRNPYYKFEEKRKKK
Assay: Competitive displacement of [3H]-DTG binding, rat liver membranes
Conditions: rat liver membranes in the presence of 100 nM (+)-pentazocine; [3H]-DTG
MEASURE_NAME: KI sigma-2 sites

>>> df
                              smiles_record                           measured_target                    val
0            CCCCCCCCCCCCCCCCCCNCCCc1ccccc1  sigma-2 receptor (sigma-2 sites) (Rattus norvegicus)  micromolar affinities
1            CCCCNCCCc1ccc([N+](=O)[O-])cc1  sigma-2 receptor (sigma-2 sites) (Rattus norvegicus)   nanomolar affinities
2  CCCCCCCCCCCCCCCCCCNCCCc1ccc([N+](=O)[O-])cc1  sigma-2 receptor (sigma-2 sites) (Rattus norvegicus)  micromolar affinities
3                  CCCCCCCCCCCCNCCCc1ccccc1  sigma-2 receptor (sigma-2 sites) (Rattus norvegicus)  micromolar affinities
4    CCCCCCCCCCCCNCCCc1ccc([N+](=O)[O-])cc1  sigma-2 receptor (sigma-2 sites) (Rattus norvegicus)  micromolar affinities
5                       CCCCCCCNCCCc1ccccc1  sigma-2 receptor (sigma-2 sites) (Rattus norvegicus)   nanomolar affinities
6                          CCCCNCCCc1ccccc1  sigma-2 receptor (sigma-2 sites) (Rattus norvegicus)   nanomolar affinities
7         CCCCCCCNCCCc1ccc([N+](=O)[O-])cc1  sigma-2 receptor (sigma-2 sites) (Rattus norvegicus)   nanomolar affinities

###

For M5 (muscarinic acetylcholine receptor type 5) (Homo sapiens, UniProt P08912), measured Ki is reported for the entries below.
MEASURE_NAME: Ki (µM)

                            smiles_record  censoring_sign  val
0       CCCCCCCNCCCc1ccc([N+](=O)[O-])cc1               =  0.3
1  CCCCCCCCCCCCNCCCc1ccc([N+](=O)[O-])cc1               =  3.6
2                     CCCCCCCNCCCc1ccccc1               >   10
3                CCCCCCCCCCCCNCCCc1ccccc1               >   10

###

Target: pure guinea pig sigma-1 receptor (Cavia porcellus)
Sequence (Q60492 whole entry): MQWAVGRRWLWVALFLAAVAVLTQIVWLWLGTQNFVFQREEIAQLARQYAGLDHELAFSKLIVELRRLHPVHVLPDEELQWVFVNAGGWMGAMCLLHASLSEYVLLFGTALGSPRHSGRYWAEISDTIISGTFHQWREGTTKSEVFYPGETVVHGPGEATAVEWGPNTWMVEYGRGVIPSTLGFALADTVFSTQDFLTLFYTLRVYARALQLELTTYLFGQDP
Test: Competitive displacement of [3H]-
Format: binding
MEASURE_NAME: Ki (nM)

In [3]: df
Out[3]:
                              smiles_record  val
0                          CCCCNCCCc1ccccc1  200
1                       CCCCCCCNCCCc1ccccc1   18
2  CCCCCCCCCCCCCCCCCCNCCCc1ccc([N+](=O)[O-])cc1   42

###

For M2 (muscarinic acetylcholine receptor type 2) (Homo sapiens, UniProt P08172), measured Ki is reported for the entries below.
MEASURE_NAME: Ki

              smiles_record  measure_name      val
0       CCCCCCCNCCCc1ccccc1            Ki  > 10 µM
1  CCCCCCCCCCCCNCCCc1ccccc1            Ki  > 10 µM

###

Biological target: D4 (dopamine receptor type 4) (Homo sapiens)
Sequence (P21917 1-419): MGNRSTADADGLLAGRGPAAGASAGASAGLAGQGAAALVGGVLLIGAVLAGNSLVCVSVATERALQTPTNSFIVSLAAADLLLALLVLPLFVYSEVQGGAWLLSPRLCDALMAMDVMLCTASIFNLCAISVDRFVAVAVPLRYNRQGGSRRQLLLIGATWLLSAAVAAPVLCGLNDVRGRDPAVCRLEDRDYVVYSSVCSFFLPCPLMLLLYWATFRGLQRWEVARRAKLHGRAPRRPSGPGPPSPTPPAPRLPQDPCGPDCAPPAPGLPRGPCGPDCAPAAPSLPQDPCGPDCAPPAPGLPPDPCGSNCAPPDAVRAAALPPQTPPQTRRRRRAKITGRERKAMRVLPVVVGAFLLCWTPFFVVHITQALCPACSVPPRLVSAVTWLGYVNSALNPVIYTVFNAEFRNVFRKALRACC
MEASURE_NAME: Ki

>>> df
              smiles_record  measure_name      val
0  CCCCCCCCCCCCNCCCc1ccccc1            Ki  > 10 µM

###

Tested on: MDA-MB-231
Assay: Multiplex cytotoxicity assay
Type: cell-based
Details: Homo sapiens, MDA-MB-231, read-out: IC50 MDA-MB-231
pIC50: −log10 of the molar value.
Some compounds, each annotated with its measured pIC50.
MEASURE_NAME: pIC50

>>> df
                            smiles_record   val
0       CCCCCCCNCCCc1ccc([N+](=O)[O-])cc1  4.52
1                     CCCCCCCNCCCc1ccccc1  4.48
2  CCCCCCCCCCCCNCCCc1ccc([N+](=O)[O-])cc1  4.82
3                CCCCCCCCCCCCNCCCc1ccccc1  4.27

###

pKi: −log10 of the molar value.
For NET (norepinephrine transporter) (Homo sapiens, UniProt P23975), measured pKi is reported for the entries below.
MEASURE_NAME: pKi

In [3]: df
Out[3]:
                            smiles_record                           measured_target  measure_name     val
0       CCCCCCCNCCCc1ccc([N+](=O)[O-])cc1  NET (norepinephrine transporter) (Homo sapiens, UniProt P23975)           pKi    5.40
1  CCCCCCCCCCCCNCCCc1ccc([N+](=O)[O-])cc1  NET (norepinephrine transporter) (Homo sapiens, UniProt P23975)           pKi  < 5.00
2                CCCCCCCCCCCCNCCCc1ccccc1  NET (norepinephrine transporter) (Homo sapiens, UniProt P23975)           pKi  < 5.00
3                     CCCCCCCNCCCc1ccccc1  NET (norepinephrine transporter) (Homo sapiens, UniProt P23975)           pKi  < 5.00

###

Target: 5HT2B (serotonin receptor subtype 2B) (Homo sapiens, UniProt P41595)
Sequence (P41595 whole entry, species assumed): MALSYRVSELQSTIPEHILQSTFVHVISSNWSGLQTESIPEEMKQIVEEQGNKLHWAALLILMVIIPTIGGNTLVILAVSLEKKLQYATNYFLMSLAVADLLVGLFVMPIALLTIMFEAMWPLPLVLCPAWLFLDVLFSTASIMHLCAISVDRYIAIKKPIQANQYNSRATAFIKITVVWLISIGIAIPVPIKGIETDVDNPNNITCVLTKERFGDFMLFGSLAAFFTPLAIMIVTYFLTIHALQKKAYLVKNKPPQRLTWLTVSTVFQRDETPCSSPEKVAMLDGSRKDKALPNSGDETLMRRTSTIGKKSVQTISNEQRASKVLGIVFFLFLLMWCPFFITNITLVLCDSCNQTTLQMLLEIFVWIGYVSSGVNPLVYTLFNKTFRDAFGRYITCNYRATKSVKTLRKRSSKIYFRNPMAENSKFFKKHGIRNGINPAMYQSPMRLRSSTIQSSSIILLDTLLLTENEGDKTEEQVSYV
pKi: −log10 of the molar value.
MEASURE_NAME: pKi

In [3]: df
Out[3]:
                                   compound                           measured_target  censoring_sign   val
0  CCCCCCCCCCCCNCCCc1ccccc1 [3a, N-(3-Phenylpropyl)dodecan-1-amine]  5HT2B (serotonin receptor subtype 2B) (Homo sapiens, UniProt P41595)               <  5.00
1    CCCCCCCNCCCc1ccc([N+](=O)[O-])cc1 [2b]  5HT2B (serotonin receptor subtype 2B) (Homo sapiens, UniProt P41595)               =  5.96
2  CCCCCCCNCCCc1ccccc1 [2a, N-(3-Phenylpropyl)heptan-1-amine]  5HT2B (serotonin receptor subtype 2B) (Homo sapiens, UniProt P41595)               <  5.00
3  CCCCCCCCCCCCNCCCc1ccc([N+](=O)[O-])cc1 [3b]  5HT2B (serotonin receptor subtype 2B) (Homo sapiens, UniProt P41595)               =  5.10

// data source = paper PMC3234165
